# Measurement Target: SIX1-Q177R homeodomain (human, UniProt Q15475 108-198, Q177R)
# Sequence: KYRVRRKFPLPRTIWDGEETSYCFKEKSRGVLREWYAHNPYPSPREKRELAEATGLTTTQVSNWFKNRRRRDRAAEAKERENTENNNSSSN
# Test Name: universal protein binding microarray; Universal all-10-mer PBM (8x60K, AMADID 030236), 300 nM GST-tagged protein, Alexa Fluor 488 anti-GST; buffer, salt, pH and temperature not stated (as in Berger); high values mean tight binding
# Measurement Setup: protein: ivt; tags: N-terminal GST; dsDNA, one strand shown
In all, about 33,000 sequences were measured (“e-score”: median about -0.05, highest 2% from about 0.38 on). The entries come from a sample that favours the highest values as a whole.
Assay Endpoint: binding signal (E-score)
Value expressed in E-score; do not type the unit.

Ask | // lookup binding signal for `GACACTGA`
Reply | 0.403

Ask | Queued: `TCTTAACA`
Reply | 0.202

Ask | What do you have for `TGTTAACA` ?
Reply | 0.389

Ask | Similarly, `TACACTGA` ?
Reply | 0.394
